Where do these numbers come from? They come from BindingDB's records for doi:10.1021/jm00192a005.

Target: Thymidine kinase, cytosolic (Cricetulus griseus)
Test: Competitive inhibition of thymidine kinase in BHK21 (C13) cells using thymidine as substrate assessed as formation of TMP by Lineweaver-Burk plot analysis
pKi: −log10 of the molar value.
MEASURED_ATTRIBUTE: pKi

P = Cc1cn([C@H]2C[C@H](O)[C@@H](CSCCCC(=O)O)O2)c(=O)[nH]c1=O
Q = CC(=O)NC[C@H]1O[C@@H](n2cc(C)c(=O)[nH]c2=O)C[C@@H]1O
R = CCCCNC[C@H]1O[C@@H](n2cc(C)c(=O)[nH]c2=O)C[C@@H]1O
Sort low-to-high on pKi, please. # the answer lists labels in the order requested
Q, P, R
(Q: 2.19, P: 2.92, R: 3.57)

A = CCCCCCN(C[C@H]1O[C@@H](n2cc(C)c(=O)[nH]c2=O)C[C@@H]1O)C(C)=O
B = CCCCCn1c(=O)c(C)cn([C@H]2C[C@H](O)[C@@H](CO)O2)c1=O
Of the two listed items, A and B , which carries the larger pKi figure? Mark your selection by writing its label.
B
(B: 4.14, A: 2.36)

---

Biological target: Thymidine kinase, cytosolic (Cricetulus griseus, UniProt P09768)
Sequence (P09768 whole entry): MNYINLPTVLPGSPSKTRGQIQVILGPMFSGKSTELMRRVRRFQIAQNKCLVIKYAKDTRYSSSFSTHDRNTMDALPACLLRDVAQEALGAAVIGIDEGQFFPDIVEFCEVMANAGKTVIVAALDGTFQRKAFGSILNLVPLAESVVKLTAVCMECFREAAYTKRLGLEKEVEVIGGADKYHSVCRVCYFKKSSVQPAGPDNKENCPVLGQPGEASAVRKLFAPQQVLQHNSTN
Test: Competitive inhibition of thymidine kinase in BHK21 (C13) cells using thymidine as substrate assessed as formation of TMP by Lineweaver-Burk plot analysis
MEASURED_ATTRIBUTE: Ki (µM)

N#Cc1cn([C@H]2C[C@H](O)[C@@H](CO)O2)c(=O)[nH]c1=O; 220
Nc1cn([C@H]2C[C@H](O)[C@@H](CO)O2)c(=O)[nH]c1=O; 450
CC(=O)NCCNC[C@H]1O[C@@H](n2cc(C)c(=O)[nH]c2=O)C[C@@H]1O; 250
CC(=O)N[C@H]1C[C@H](n2cc(C)c(=O)[nH]c2=O)O[C@@H]1CO; 2500
Cc1cn([C@H]2C[C@H](O)[C@@H](CSCCO)O2)c(=O)[nH]c1=O; 800

A = CCS[C@H]1C[C@H](n2cc(C)c(=O)[nH]c2=O)O[C@@H]1CO
B = CCC(=O)NCC(O)[C@H]1O[C@@H](n2cc(C)c(=O)[nH]c2=O)C[C@@H]1O (stereo partly drawn)
C = CC(=O)N(C)CCN(C)C[C@H]1O[C@@H](n2cc(C)c(=O)[nH]c2=O)C[C@@H]1O
D = CC(=O)NCC(O)[C@H]1O[C@@H](n2cc(C)c(=O)[nH]c2=O)C[C@@H]1O (stereo partly drawn)
Kindly order the items shown according to Ki, from the highest value down. Form entry: labels listed in requested order.
C, D, B, A

1 = CCCCCCNC[C@H]1O[C@@H](n2cc(C)c(=O)[nH]c2=O)C[C@@H]1O
2 = Cc1cn([C@H]2C[C@H](O)[C@@H](CSCCC(=O)O)O2)c(=O)[nH]c1=O
3 = NCc1cn([C@H]2C[C@H](O)[C@@H](CO)O2)c(=O)[nH]c1=O
Which order do these items take when sorted by rising Ki? List them. Quick reminder: the answer is the labels in the order asked.
1, 2, 3
(1: 180 µM, 2: 500 µM, 3: 1700 µM)
